# target-or-system: T1, GPC3 C-terminal fragment (polypeptide consisting of the amino acid sequence represented by SEQ ID NO: 156) (human)
# T1 construct: domain: transmembrane domain; also called GPC3 C-terminal fragment-expressing cell line; C-terminal polypeptide of GPC3; not shown: HA tag added to the N terminus by the pDisplay vector; myc tag added to the C terminus of the PDGFR by the pDisplay vector
# T1 sequence (P09619 other isoform, or with tags, fused parts or gaps): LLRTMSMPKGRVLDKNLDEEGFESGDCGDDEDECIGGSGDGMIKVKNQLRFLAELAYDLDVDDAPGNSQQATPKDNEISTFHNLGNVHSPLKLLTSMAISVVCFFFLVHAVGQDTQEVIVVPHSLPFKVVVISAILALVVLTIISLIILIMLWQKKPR
# method-notes: FCM of IgG on GPC3 C-terminal fragment-expressing cell line

binder	binding result
IgG clone TF1413-03e005 (antibody, V domains shown, also called TF1413-03e005 IgG antibody) VH: QVQLKESGAELVRSGASVKLSCTASGFNIKDYYMHWVKQRPEQGLEWIGWIDPENGDTEYAPKFQGKATMTADTSSNTAYLQLSSLTSEDTAVYYCNAFYYDYDGYAMDYWGQGTSVTVSR VL: DVVMTQTPSSLSASLGERVSLTCRASQEISGYLSWLQQKPDGTIKRLIYAASTLDSGVPKRFSGSRSGSDYSLTISSLESEDFADYYCLQYASYPLTFGAGTKLELKR	no binding
IgG clone TF1413-02e040 (antibody, V domains shown, also called TF1413-02e040 IgG antibody) VH: EVMLVESGPELVKPGASMKISCKASGYSFTGYTMNWVKQSHGKNLEWIGLINPYNGGTSYNQNFKGKATLTVDKSSSTAYMELLSLTSEDSAVYYCARGYYGRFDYWGQGTTLTVSS VL: DILLTQSPKFMSTSVGDRVSITCKASQNVRTAVAWYQQKPGQSPKALIYLASNRHTGVPDRFTGSGSGTDFTLTISNVQSEDLADYFCLQHWNYPLTFGAGTKLELKR	no binding
IgG clone TF1413-03e004 (antibody, V domains shown, also called TF1413-03e004 IgG antibody) VH: QVQLKQSGAELVKPGAPVKLSCKASGYTFTSYWMNWVKQRPGRGLEWIGRIDPSDSETHYNQKFKDKATLTVDKSSSTAYIQLSSLTSEDSAVYYCARGYYGSNYWGQGTTLTVSS VL: DIKMTQSPKFMSTSVGDRVSVTCKASQNVGTNVAWYQQKPGQSPKALIYSASYRYSGVPDRFTGSGSGTDFTLTISNVQSEDLAEYFCQQYNSYPLTFGAGTKLELKR	no binding

These data points were gathered from patent US20190359698A1.
